Recorded values, source ChEMBL document CHEMBL3507680.

Recorded measurements of cytotoxicity at 70.5 h, one per entry
# EXPERIMENTAL PROTOCOL: Human HepG2 cell viability assay in 384 well format
# Assay type: toxicity, cell-based
# Parameters: dose 125 nL, time 70.5 hour; concentration not given beside the values
# TEST CONTEXT: HepG2 cells, read-out: Inhibition
Lab book: enter the figure in %, no units written.

Solved entries (count: 5):
{"columns": ["MOLECULE", "cytotoxicity at 70.5 h (%)"],
 "data": [
  ["Cc1ccnn1CCNC(=O)C1CCN(S(=O)(=O)c2ccc(F)cc2)C1 (configuration not stated)", 6.47],
  ["O=C(N1CCCC1)N1CCN(Cc2cccnc2)c2ncccc2C1", -10.8],
  ["O=C(NCC1CCC1)c1ccnc(-n2ccnc2)c1", 1.75],
  ["Cc1nn(C)c(C)c1C1CCCN1C(=O)c1ccc(C(N)=O)cn1 (configuration not stated)", 4.05],
  ["Cc1cc(C)n(C2CCCN(C(=O)c3c(C)noc3C)C2)n1 (configuration not stated)", -7.4]
]}

Ask: Query (molecule): CCS(=O)(=O)N1CCC(c2nn(CCN(C)C)c3ncccc23)C1 (configuration not stated) ; field requested: cytotoxicity at 70.5 h
Result: -1.3

Ask: Query (molecule): O=C(NCCCO)C1(N2CCCCC2)Cc2ccccc2C1 ; field requested: cytotoxicity at 70.5 h
Result: -10.2

Ask: Query (molecule): O=c1ccc(-n2ccnc2)nn1CCNS(=O)(=O)c1ccc(F)c(Cl)c1 ; field requested: cytotoxicity at 70.5 h
Result: -1.07

====

Recorded measurements of cytotoxicity at 70.5 h, one per entry
# EXPERIMENTAL PROTOCOL: Human HepG2 cell viability assay in 384 well format
# Assay type: toxicity, cell-based
# Parameters: dose 125 nL, time 70.5 hour; concentration not given beside the values
# TEST CONTEXT: HepG2 cells, read-out: Inhibition
Lab book: enter the figure in %, no units written.

{"columns": ["COMPOUND", "MEASURED"],
 "data": [
  ["Cc1nn(C)c(Cl)c1C1CCCN1C(=O)c1cnc[nH]1 (stereo not drawn)", -12.8],
  ["COc1ccc(OCc2cc(C(=O)N3CCSCC3)n[nH]2)c(Cl)c1", -5.04],
  ["Cc1cccc2[nH]c(C3CCN(C(=O)c4c[nH]c(=O)[nH]c4=O)CC3)nc12", -7.98],
  ["O=C(NC1(c2nccs2)CCCC1)c1[nH]nc(C2CC2)c1Cl", 3],
  ["OC(CN1CCCc2ccc(F)cc21)Cn1cccn1 (stereo not drawn)", 7.05]
]}

Ask: Query (compound): CCC(=O)N1CCCC1c1nccnc1Nc1ncccn1 (stereo not drawn) ; field requested: cytotoxicity at 70.5 h
Result: -15

Ask: Query (compound): CCN1CCNC(=O)C12CCN(S(=O)(=O)c1ccc(F)cc1)CC2 ; field requested: cytotoxicity at 70.5 h
Result: 0.587

Ask: Query (compound): COc1ccccc1OCCNC1CCCN(Cc2noc(C)n2)C1 (stereo not drawn) ; field requested: cytotoxicity at 70.5 h
Result: 31.2

Ask: Query (compound): COc1ccc(CN2CC(O)CN(C(=O)OCC(C)C)CC2=O)cc1 (stereo not drawn) ; field requested: cytotoxicity at 70.5 h
Result: 14.8

Ask: Query (compound): Cc1nn(C)c(C)c1C(=O)NN1CCOCC1 ; field requested: cytotoxicity at 70.5 h
Result: -6.78

Ask: Query (compound): CCc1noc(CS(=O)(=O)CC=C(C)C)n1 ; field requested: cytotoxicity at 70.5 h
Result: -9.04

Ask: Query (compound): COCCN(C)CC(=O)N1C[C@@H](C)[C@](O)(C(C)C)C1 ; field requested: cytotoxicity at 70.5 h
Result: -1.28

Ask: Query (compound): CCn1nccc1CNC(=O)C1CCCC1 ; field requested: cytotoxicity at 70.5 h
Result: -6.56

Ask: Query (compound): COC[C@@H]1CN(C)C(=O)[C@@H]2CCN(Cc3ccco3)CC[C@H]12 ; field requested: cytotoxicity at 70.5 h
Result: -4.9

Ask: Query (compound): CC(C)CN1C(=O)C2(CCN(Cc3ccc(F)cc3)C2)c2ccccc21 (stereo not drawn) ; field requested: cytotoxicity at 70.5 h
Result: -0.325

Ask: Query (compound): CC(C)c1noc(CN2CCCC2c2noc(C(C)C)n2)n1 (stereo not drawn) ; field requested: cytotoxicity at 70.5 h
Result: -9.32

Ask: Query (compound): Cc1ccc(NC2CCN(C(=O)c3cccc4cccnc34)CC2)nn1 ; field requested: cytotoxicity at 70.5 h
Result: -6.15

Ask: Query (compound): Cc1ccccc1OCC(=O)NCC(c1ccc(N(C)C)cc1)N(C)C (stereo not drawn) ; field requested: cytotoxicity at 70.5 h
Result: 29.2

Ask: Query (compound): COc1ccc2c(c1)OCC(C(=O)NCc1ncc3c(n1)CCC3)C2 (stereo not drawn) ; field requested: cytotoxicity at 70.5 h
Result: -8.14

Ask: Query (compound): Cc1ccc(OCc2nc(CNCC3CN(C)CCO3)cs2)cc1 (stereo not drawn) ; field requested: cytotoxicity at 70.5 h
Result: 29.7

Ask: Query (compound): CCN(CC)C(=O)c1ccc(COc2ccccc2C#N)o1 ; field requested: cytotoxicity at 70.5 h
Result: -9.63

Ask: Query (compound): CN(C)c1cnn(CC(=O)N2CCCCCC2)c(=O)c1 ; field requested: cytotoxicity at 70.5 h
Result: -0.929

Ask: Query (compound): O=C(CCCc1cccs1)N1CCC(N2CCNC2=O)CC1 ; field requested: cytotoxicity at 70.5 h
Result: 22.1

====

# EXPERIMENTAL PROTOCOL: Human HepG2 cell viability assay in 384 well format
# Format: toxicity, cell-based
# Design: dose 125 nL, time 70.5 hour; concentration not given beside the values
# TEST CONTEXT: HepG2 cells, read-out: Inhibition
ASSAY ENDPOINT: cytotoxicity at 70.5 h (%)
Lab book: enter the figure in %, no units written.

{"columns": ["MOLECULE", "MEASURED"],
 "data": [
  ["Cc1ccc(N2CCC3(CCCN(C(=O)c4cnccn4)C3)C2)nn1 (stereo unspecified)", 1.5],
  ["FC(F)(F)C1CCc2nnc(CNCc3cccs3)n2C1 (stereo unspecified)", 24.7],
  ["CN(C)CC1CSCCCN1S(=O)(=O)Cc1ccc(C(F)(F)F)cc1 (stereo unspecified)", -0.0412]
]}

Ask: Query (molecule): Cc1ccc(CN2CC(C(=O)N3CCCC3)C3(CCOCC3)C2)s1 (stereo unspecified) ; field requested: cytotoxicity at 70.5 h
Result: -9.91

Ask: Query (molecule): CN(CC(N)=O)C(=O)c1cn(-c2ccc(Br)cc2)cn1 ; field requested: cytotoxicity at 70.5 h
Result: 23.1

Ask: Query (molecule): O=C(O)[C@@H]1CN(CC(=O)N2CCCCCC2)C[C@H]1c1ccc(F)cc1 ; field requested: cytotoxicity at 70.5 h
Result: -5.12

Ask: Query (molecule): CCOCc1nccc(-c2ccc(OCC)c(C(=O)O)c2)n1 ; field requested: cytotoxicity at 70.5 h
Result: 2.25

====

# EXPERIMENTAL PROTOCOL: Human HepG2 cell viability assay in 384 well format
# Type: toxicity, cell-based
# Parameters: dose 125 nL, time 70.5 hour; concentration not given beside the values
# TEST CONTEXT: HepG2 cells, read-out: Inhibition
Recorded measurements of cytotoxicity at 70.5 h, one per entry
Lab book: enter the figure in %, no units written.

Solved entries (count: 6):
{"columns": ["MOLECULE", "ASSAY ENDPOINT", "SCALE UNIT", "MEASURED"],
 "data": [
  ["Cc1ccccc1CN1CCN(C(C)c2nc(C3CC3)no2)CC1 (centres undefined)", "cytotoxicity at 70.5 h", "%", 17],
  ["NC(=O)CN1CCOCC(Cc2ccccc2Cl)C1 (centres undefined)", "cytotoxicity at 70.5 h", "%", -3.99],
  ["CCc1nc(C2CCCN(C(=O)c3ccc(OC)cc3)C2)no1 (centres undefined)", "cytotoxicity at 70.5 h", "%", 0.812],
  ["CNc1nccnc1C1CN(C(=O)c2c[nH]cn2)CCO1 (centres undefined)", "cytotoxicity at 70.5 h", "%", 3.73],
  ["Cc1n[nH]c(C2CN(C(=O)c3ccc4c(c3)COC4)CCO2)n1 (centres undefined)", "cytotoxicity at 70.5 h", "%", -1.57],
  ["CCc1ccc(C2CCCN2C(=O)Cc2ccc(NC(C)=O)cc2)o1 (centres undefined)", "cytotoxicity at 70.5 h", "%", 10.6]
]}

Ask: Query (molecule): CC(C)c1cc(NC2CCCN(C(=O)c3cccs3)C2)ncn1 (centres undefined) ; field requested: cytotoxicity at 70.5 h
Result: 2.55

Ask: Query (molecule): COc1ncccc1CN1CC[C@H]2O[C@H](c3nnc(C)o3)CC[C@H]21 ; field requested: cytotoxicity at 70.5 h
Result: -11.5

Ask: Query (molecule): CCc1nc(C#N)c(N2CCC(c3nc(-c4ccccc4)no3)CC2)o1 ; field requested: cytotoxicity at 70.5 h
Result: 0.267

Ask: Query (molecule): CC(C(=O)Nc1ccc(N2CCCCC2)nc1)n1ccnc1 (centres undefined) ; field requested: cytotoxicity at 70.5 h
Result: 25.5

Ask: Query (molecule): O=C(NC(c1ccc(Cl)cc1)c1cccnc1)C1CC1 (centres undefined) ; field requested: cytotoxicity at 70.5 h
Result: -7.72

Ask: Query (molecule): CCN(CC)C(=O)CSc1nc2c(cnn2CCO)c(=O)[nH]1 ; field requested: cytotoxicity at 70.5 h
Result: 17.2

Ask: Query (molecule): CN(C)c1ncccc1NC(=O)COC1CCCC1 ; field requested: cytotoxicity at 70.5 h
Result: -5.74

Ask: Query (molecule): CC(C)NC(=O)NCc1cc(-c2cccc(Cl)c2)nn1C ; field requested: cytotoxicity at 70.5 h
Result: 7.95

Ask: Query (molecule): Cc1cc(C)n(CCNCc2cc(-c3ccccc3)c[nH]c2=O)n1 ; field requested: cytotoxicity at 70.5 h
Result: -9.26

Ask: Query (molecule): CCNC(=O)NC(=O)CNC1(c2noc(C)n2)CCCC1 ; field requested: cytotoxicity at 70.5 h
Result: 16.6

Ask: Query (molecule): CN(C)c1ccc(C(=O)N(Cc2ccncc2)CC2CCCO2)nn1 (centres undefined) ; field requested: cytotoxicity at 70.5 h
Result: -4.51

Ask: Query (molecule): COCC(=O)N1CCC2(CC1)CCn1c(-c3cccc(OC)c3)cnc12 ; field requested: cytotoxicity at 70.5 h
Result: 36.2

Ask: Query (molecule): CN(Cc1cncnc1)[C@H]1CN(CC2CC2)[C@@H]2CCCO[C@@H]21 ; field requested: cytotoxicity at 70.5 h
Result: -5.03

Ask: Query (molecule): CCOCC(=O)NC1(c2cccc(Br)c2)CC1 ; field requested: cytotoxicity at 70.5 h
Result: 13.9
